These measurements were taken from patent EP4588921A1.

- assay-info: PK studies in animals of the free base crystal forms
- Assay type: in vivo
- condition-description: Sprague-Dawley (SD), rat, plasma, po, 30 mg/kg, 30MPK, 0.5%HPMC suspension, SD rats
measured-endpoint: Cmax (ng/mL)
Reply with just the number (in ng/mL).

Look up Cmax for this molecule: CC(C)(O)c1nc(N2C[C@H]3CN(C(=O)c4c(F)cccc4-c4ncccn4)C[C@H]3C2)ncc1F [free base crystal form II]
2520

----------
- assay-info: PK studies in animals of the free base crystal forms
- Type: in vivo
- condition-description: Sprague-Dawley (SD), rat, plasma, po, 30 mg/kg, PO, 30MPK, 0.5%HPMC suspension, SD rats, read-out: MRT 0-∞
measured-endpoint: MRT inf

Suppose we examine the compound CC(C)(O)c1nc(N2C[C@H]3CN(C(=O)c4c(F)cccc4-c4ncccn4)C[C@H]3C2)ncc1F [free base crystal form II] ; what MRT inf value has been reported?
4.3 h
